system: CP265; test: qHTS profiling for inhibitors of Plasmodium falciparum proliferation (AID 504749); further: nearly all actives have a fitted effect of over 60% in size; conditions: P. falciparum in erythrocytes, SYBR Green DNA, 72 h; series mostly up to 28.7 µM
Records with an inconclusive call do not appear. Calls of active or inactive are those of the source. The call rests on the fitted dose curve; in most records, active means well fitted inhibition curve with a large enough effect; inconclusive means small, poorly fitted or top-dose-only effect; inactive means flat fitted curve, though single readings scatter. Bridge positions count the residues as written; N and C are the ends. Square brackets hold non-standard residues; d marks the D form. Peptide text beside a SMILES is read from it. * marks the point of attachment. ξ: configuration not given here. ξDab(CH2SO3H) = NC(CCNCS(=O)(=O)O)C(=O)O; Heptanoyl(6-Me) = CC(C)CCCCC(=O)*; Dab = NCC[CH](N)C(=O)O
Allowed answers: class 1 = active, class 0 = inactive

Give the logged outcome of this assay for the following molecule: CCC(C)C1NC(=O)C(CCNCS(=O)(=O)O)NC(=O)C(NC(=O)C(CCNCS(=O)(=O)O)NC(=O)C(NC(=O)C(CCNCS(=O)(=O)O)NC(=O)CCCCC(C)C)C(C)O)CCNC(=O)C(C(C)O)NC(=O)C(CCNCS(=O)(=O)O)NC(=O)C(CCNCS(=O)(=O)O)NC(=O)C(C(C)CC)NC1=O (stereo not drawn) ({Heptanoyl(6-Me)}-[ξDab(CH2SO3H)]T[ξDab(CH2SO3H)][Dab][ξDab(CH2SO3H)]II[ξDab(CH2SO3H)][ξDab(CH2SO3H)]T; lactam 4-C; configuration not given here)
class 0

Give the logged outcome of this assay for the following molecule: CCOC(=O)C(CS)NCCN[C@@H](CS)C(=O)OCC (stereo partly drawn)
class 0

Give the logged outcome of this assay for the following molecule: O=C(OCC1OC(OC(=O)c2cc(O)c(O)c(OC(=O)c3cc(O)c(O)c(O)c3)c2)[C@@H](OC(=O)c2cc(O)c(O)c(OC(=O)c3cc(O)c(O)c(O)c3)c2)C(OC(=O)c2cc(O)c(O)c(OC(=O)c3cc(O)c(O)c(O)c3)c2)C1OC(=O)c1cc(O)c(O)c(OC(=O)c2cc(O)c(O)c(O)c2)c1)c1cc(O)c(O)c(OC(=O)c2cc(O)c(O)c(O)c2)c1 (stereo partly drawn)
class 1
